assay: Kinetic solubility in FaSSIF and FeSSIF; type: physicochemical; settings: solubility (concentration of Compound I in filtrate)
quantity: solubility at 0.5 h (µg/mL)

compound: CCC[C@H](N[C@H]1CCc2cc(F)cc(F)c2C1)C(=O)Nc1cn(C(C)(C)CNCC(C)(C)C)cn1 [Form A, reference compound]
quantity: solubility at 0.5 h
unit_abbrev: µg/mL
observed_result: 7500

---

test: Kinetic solubility in FaSSIF and FeSSIF; type: physicochemical; conditions: FeSSIF, 37 °C, equilibration for 0.5 h, HPLC; read-out: solubility (concentration of Compound I in filtrate)

compound: CCC[C@H](N[C@H]1CCc2cc(F)cc(F)c2C1)C(=O)Nc1cn(C(C)(C)CNCC(C)(C)C)cn1 [Form CSVI]
solubility at 0.5 h: 10.1 mg/mL

---

test: Kinetic solubility in FaSSIF and FeSSIF; assay type: physicochemical; details: fassif, 37 °C, equilibration for 0.5 h, HPLC; read-out: solubility (concentration of Compound I in filtrate)

compound: CCC[C@H](N[C@H]1CCc2cc(F)cc(F)c2C1)C(=O)Nc1cn(C(C)(C)CNCC(C)(C)C)cn1 [Form CSVI]
solubility at 0.5 h, mg/mL: 16.1
